// data source = ChEMBL document CHEMBL3877308

Listed here are molecules together with their documented Activity.
# Subject Of Test: Signal peptidase I (Escherichia coli K-12) (UniProt P00803)
# Sequence (P00803 whole entry): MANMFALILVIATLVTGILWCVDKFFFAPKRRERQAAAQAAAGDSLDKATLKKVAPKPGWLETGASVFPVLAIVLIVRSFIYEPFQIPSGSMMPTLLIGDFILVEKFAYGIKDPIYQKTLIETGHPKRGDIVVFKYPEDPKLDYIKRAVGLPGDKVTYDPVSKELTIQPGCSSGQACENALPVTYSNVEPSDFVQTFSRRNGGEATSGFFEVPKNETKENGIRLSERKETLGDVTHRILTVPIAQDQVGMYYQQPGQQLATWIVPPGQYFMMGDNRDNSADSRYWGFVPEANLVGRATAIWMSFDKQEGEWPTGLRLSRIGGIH
# Test Protocol: Inhibition of full length Escherichia coli His6-tagged LepB expressed in Escherichia coli C43(DE3) assessed as residual activity at 0.039 uM using dabcyl-VEVGGTATAGAFSRPGLE-(EDANS) as substrate preincubated for 10 mins followed by substrate addition measured for 2 hrs by FRET assay relative to control
// return numeric value only (unit: %, not printed)

Worked cases, Activity given:
- Molecule: "CCCCCCc1ccc(-c2ccc(C(=O)N3CC(CN)C[C@H]3C(=O)N[C@H](C(=O)N[C@@H](C)C(=O)N[C@@H](CC(N)=O)C(=O)N[C@@H](C)B(O)O)[C@H](C)O)cc2)cc1 (stereo not given in full)"
  Subject Of Test: "Signal peptidase I (Escherichia coli K-12) (UniProt P00803)"
  Uom: "%"
  Activity: 27.7
- Molecule: "CCCCCCc1ccc(-c2ccc(C(=O)N3CCC[C@H]3C(=O)N[C@H](C(=O)N[C@@H](C)C(=O)N[C@@H](CC(N)=O)C(=O)N[C@@H](C)B3O[C@@H]4C[C@@H]5C[C@@H](C5(C)C)[C@]4(C)O3)[C@H](C)O)cc2)cc1"
  Subject Of Test: "Signal peptidase I (Escherichia coli K-12) (UniProt P00803)"
  Uom: "%"
  Activity: 16.8

-- ask Entry under review: `CCCCCCCCCC(=O)N1CCC[C@H]1C(=O)N[C@H](C(=O)N[C@@H](C)C(=O)N[C@@H](CC(N)=O)C(=O)N[C@@H](C)B1O[C@@H]2C[C@@H]3C[C@@H](C3(C)C)[C@]2(C)O1)[C@H](C)O` . Reported Activity?
-- reply 47

-- ask Entry under review: `CCCCc1ccc(-c2ccc(C(=O)N[C@@H](CCN)C(=O)N[C@H](C(=O)N[C@@H](C)C(=O)N[C@@H](CCCCN)C(=O)N[C@@H](C)B3O[C@@H]4C[C@@H]5C[C@@H](C5(C)C)[C@]4(C)O3)[C@H](C)O)cc2)cc1` . Reported Activity?
-- reply 80.2

-- ask Entry under review: `CCCCCCc1ccc(-c2ccc(C(=O)N3CCC[C@H]3C(=O)N[C@H](C(=O)N[C@@H](C)C(=O)N[C@@H](CC(N)=O)C(=O)N[C@@H](C)B(O)O)[C@H](C)O)cc2)cc1` . Reported Activity?
-- reply 97

###

# Subject Of Test: UniProt P00803
# Test Protocol: Inhibition of full length Escherichia coli His6-tagged LepB expressed in Escherichia coli C43(DE3) assessed as residual activity at 5 uM using dabcyl-VEVGGTATAGAFSRPGLE-(EDANS) as substrate preincubated for 10 mins followed by substrate addition measured for 2 hrs by FRET assay relative to control
Endpoint: Activity (%)
// return numeric value only (unit: %, not printed)

Worked cases, Activity given:
- Compound: "CCCCCCc1ccc(-c2ccc(C(=O)N3CCC[C@H]3C(=O)N[C@H](C(=O)N[C@@H](C)C(=O)N[C@@H](CC(N)=O)C(=O)N[C@@H](C)B(O)O)[C@H](C)O)cc2)cc1"
  Endpoint: "Activity"
  Value: 4.71
- Compound: "CCCCc1ccc(-c2ccc(C(=O)N[C@@H](CCN)C(=O)N[C@H](C(=O)N[C@@H](C)C(=O)N[C@@H](CCCCN)C(=O)N[C@@H](C)B3O[C@@H]4C[C@@H]5C[C@@H](C5(C)C)[C@]4(C)O3)[C@H](C)O)cc2)cc1"
  Endpoint: "Activity"
  Value: 0.501
- Compound: "CCCCCCc1ccc(-c2ccc(C(=O)N3CC(CN)C[C@H]3C(=O)N[C@H](C(=O)N[C@@H](C)C(=O)N[C@@H](CC(N)=O)C(=O)N[C@@H](C)B3O[C@@H]4C[C@@H]5C[C@@H](C5(C)C)[C@]4(C)O3)[C@H](C)O)cc2)cc1 (stereo partly specified)"
  Endpoint: "Activity"
  Value: 4.04
- Compound: "CCCCCCc1ccc(-c2ccc(C(=O)N3CC(CN)C[C@H]3C(=O)N[C@H](C(=O)N[C@@H](C)C(=O)N[C@@H](CC(N)=O)C(=O)N[C@@H](C)B(O)O)[C@H](C)O)cc2)cc1 (stereo partly specified)"
  Endpoint: "Activity"
  Value: 28.2
- Compound: "CCCCCCCCCC(=O)N1CCC[C@H]1C(=O)N[C@H](C(=O)N[C@@H](C)C(=O)N[C@@H](CC(N)=O)C(=O)N[C@@H](C)B1O[C@@H]2C[C@@H]3C[C@@H](C3(C)C)[C@]2(C)O1)[C@H](C)O"
  Endpoint: "Activity"
  Value: 10.6

Next compound, Activity to be filled in.
-- ask Hello, I am looking for reported Activity with UniProt P00803 for `CCCCCCc1ccc(-c2ccc(C(=O)N3CCC[C@H]3C(=O)N[C@H](C(=O)N[C@@H](C)C(=O)N[C@@H](CC(N)=O)C(=O)N[C@@H](C)B3O[C@@H]4C[C@@H]5C[C@@H](C5(C)C)[C@]4(C)O3)[C@H](C)O)cc2)cc1` . Could you help?
-- reply 11.2
